System: murine red blood cells (mRBCs)
Conditions: mouse, 60 min, 7.8 μg/mL
// boundary case: Percentage of hemolysis (±SDEV) equal to 8% maps to F; strictly smaller maps to T

Compound: C[C@@H](c1ncncc1F)[C@](O)(Cn1cncn1)c1ccc(F)cc1F [VOR, voriconazole, reference compound]
Assigned class: F
--
Compound: COc1ccc(N/N=C/c2ccc(-c3cccc(/C=N/Nc4ccc(OC)cc4)c3)cc2)cc1 [Compound 15a]
Assigned class: T
--
Compound: Fc1ccc(N/N=C/c2ccc(-c3cccc(/C=N/Nc4ccc(F)cc4F)c3)cc2)c(F)c1 [Compound 20a]
Assigned class: F
--
Compound: COc1ccc(N/N=C/c2ccc(-c3ccc(/C=N/Nc4ccc(OC)cc4)cc3)cc2)cc1 [Compound 15b]
Assigned class: T
--
Compound: N=C(N)N/N=C/c1ccc(-c2cccc(/C=N/NC(=N)N)c2)cc1 [Compound 24a]
Assigned class: T
--
Compound: Fc1cccc(N/N=C/c2ccc(-c3ccc(/C=N/Nc4cccc(F)c4)cc3)cc2)c1 [Compound 12b]
Assigned class: T
--
Compound: C(=N\Nc1ccccc1)/c1ccc(-c2ccc(/C=N/Nc3ccccc3)cc2)cc1
Assigned class: T
